Origin of measurements: patent US20240109974A1

- TEST TARGET: T1, human TNFR2 (Novoprotein, Cat #C830) (human, UniProt P20333 23-257, limits assumed)
- T1 construct: construct not described; also called human TNFR2 protein
- T1 sequence (looked up): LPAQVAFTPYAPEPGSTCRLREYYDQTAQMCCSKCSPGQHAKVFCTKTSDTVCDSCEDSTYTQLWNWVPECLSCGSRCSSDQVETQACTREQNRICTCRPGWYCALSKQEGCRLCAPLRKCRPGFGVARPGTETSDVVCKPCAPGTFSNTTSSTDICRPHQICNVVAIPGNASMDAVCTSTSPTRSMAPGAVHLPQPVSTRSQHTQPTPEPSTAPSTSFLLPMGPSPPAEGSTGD
- PROTOCOL: competition ELISA, competitor human TNFα-Biotin; IC50 against 001-WT
RECORDED ENDPOINT: % Relative activity (WT antibody/test antibody) (%)
Answers are plain numbers, in %.

Request: Fill in: % Relative activity (WT antibody/test antibody) of 001-Hu1 (antibody, V domains shown, Humanized form of #001; also called VH1 + VL1) VH: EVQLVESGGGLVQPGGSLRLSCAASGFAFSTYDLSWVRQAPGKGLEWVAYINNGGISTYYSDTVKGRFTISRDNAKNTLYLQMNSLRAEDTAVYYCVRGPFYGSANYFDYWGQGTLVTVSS VL: DIQMTQSPSSLSASVGDRVTITCRTSESIYSNLPWYQQKPGKAPKLLLYDATKLAEGVPSRFSGSGSGTDYTLTISSLQPEDFATYYCQHFWVTPWTFGQGTKVEIK is ___
Response: 94.7
